ASSAY COMMENT: Chemical stability in simulated intestinal fluid (SIF)
Format: physicochemical
EXPERIMENTAL CONDITIONS: SIF without enzymes, pH 6.5; 10 μm; 2 hours at 37° C.; substance amount remaining
MEASUREMENT TYPE: Stability in SIF, % (%)
Answer format: numeric, % implied, no suffix.

Consider the worked cases shown below.
MOLECULE	Stability in SIF, % / %
C=CC(=O)Nc1cc(Nc2nccc(C(=O)c3ccc(-n4ccnc4)cc3)n2)c(OC)cc1N(C)CCN(C)C [EGFR_3365_86]	99.4
C=CC(=O)Nc1cc(Nc2nccc(C(=O)c3cccc(OC)c3)n2)c(OC)cc1N(C)CCN(C)C [EGFR_3365_32]	99.7
C=CC(=O)Nc1cc(Nc2nccc(C(=O)c3ccc(OCC)cc3)n2)c(OC)cc1N(C)CCN(C)C [EGFR_3365_29]	100.0

Here's the next entry for you.
*Q* Which Stability in SIF, % value belongs to C=CC(=O)Nc1cc(Nc2nccc(C(=O)c3ccc(OCC)cc3OCC)n2)c(OC)cc1N(C)CCN(C)C [EGFR_3365_68] ?
*A* 98.2

###

efflux ratio at 2 h, 10 µM overview
ASSAY COMMENT: Permeability through monolayer of Caco-2 cells
Type: in vitro ADME
EXPERIMENTAL CONDITIONS: human; Caco-2 monolayer; Papp B-A/Papp A-B
Answer field: number only, no words.

Solved entries:
STRUCTURE AS SMILES	efflux ratio at 2 h, 10 µM
C=CC(=O)Nc1cc(Nc2nccc(C(=O)c3ccc(OCCC)cc3OCCC)n2)c(OC)cc1N(C)CCN(C)C	0.4
C=CC(=O)Nc1cc(Nc2nccc(C(=O)c3ccc(N(C)C)cc3)n2)c(OC)cc1N(C)CCN(C)C	1.6
C=CC(=O)Nc1cc(Nc2nccc(C(=O)c3ccc(N4CCCCC4)cc3)n2)c(OC)cc1N(C)CCN(C)C	1.49
C=CC(=O)Nc1cc(Nc2nccc(C(=O)c3cc4ccccc4n3C)n2)c(OC)cc1N(C)CCN(C)C	0.86
C=CC(=O)Nc1cc(Nc2nccc(C(=O)c3ccc(N4CCCC4)cc3)n2)c(OC)cc1N(C)CCN(C)C	1
C=CC(=O)Nc1cc(Nc2cc(C(=O)c3ccc(OCCC)cc3)ccn2)c(OC)cc1N(C)CCN(C)C	0.3
C=CC(=O)Nc1cc(Nc2cc(C(=O)c3ccc(OCC)cc3)ccn2)c(OC)cc1N(C)CCN(C)C	1.2
C=CC(=O)Nc1cc(Nc2nccc(C(=O)c3ccccc3Br)n2)c(OC)cc1N(C)CCN(C)C	0.98

Read the next record carefully.
*Q* Which measured efflux ratio at 2 h, 10 µM value corresponds to C=CC(=O)Nc1cc(Nc2nccc(C(=O)c3ccc(OC)cc3OCCC)n2)c(OC)cc1N(C)CCN(C)C ?
*A* 1.62

###

In this section, each of the compounds is paired with its reported Intrinsic clearance in human liver S9 fractions at 10 µM.
ASSAY COMMENT: Enzyme stability in human liver S9 fractions
Type: in vitro ADME
EXPERIMENTAL CONDITIONS: 0.5 mg/mL pooled human liver S9 fractions; 10 μM compound; 37° C.; pH 7.4; read-out: Stability in liver S9 fractions, Clint
Description: Determination of enzyme stability. Measuring of candidate enzyme stability enabled estimation of the stability of the compounds towards the action of liver enzymes. […] Based on the data obtained, candidate enzyme stability in human liver S9 fractions was determined (see Table 11).
Field format: number, assumed µL/min/mg, no unit text.

// solved cases for Intrinsic clearance in human liver S9 fractions at 10 µM follow
COMPOUND	QUANTITATIVE RESULT
C=CC(=O)Nc1cc(Nc2nccc(C(=O)c3ccc(C)cc3)n2)c(OC)cc1N(C)CCN(C)C	16.6
C=CC(=O)Nc1cc(Nc2nccc(C(=O)c3ccc(NCCO)cc3)n2)c(OC)cc1N(C)CCN(C)C.O=CO [EGFR_3365_106, formate]	6.7

Pending compound:
*Q* Consider the compound C=CC(=O)Nc1cc(Nc2nccc(C(=O)c3ccc(OCCC)cc3)n2)c(OC)cc1N(C)CCN(C)C and give its measured Intrinsic clearance in human liver S9 fractions at 10 µM.
*A* 1.2
